- Experimental System: Syk(6-370) cleaved from GST-Syk(6-370) by thrombin (UniProt P43405 6-370)
- Test Method Notes: surface plasmon resonance (BIAcore 3000)
Ends that are not written are not given here.
Measurement Label: pKd
Please report pKd as the negative decimal logarithm of the molar concentration, giving only the number.

KLLIHLSDLREYRRFEKEKLKSQWNNDNPLFKSATTTVMNPKFAES (other, UniProt P05107 724-769, looked up, not shown: small tags and cut ends, not fully specified, domain: cytoplasmic domain) [β2 integrin cytoplasmic domain model protein]    7.44

As a next step, examine the binder that follows.
Output measured pKd for this item: KLLITIHDRKEFAKFEEERARAKWDTANNPLYKEATSTFTNITYRGT (other, UniProt P05106 742-788, looked up, not shown: a dimerising Fc or GST, also: coiled-coil homodimer, domain: cytoplasmic domain; Coiled-coil homodimer; also called β3 tail; β3 tail model protein) [integrin β3 cytoplasmic tail model protein]
7.62
